// reported viability, T/C per item
system: 435261-313-R-J1-PDC tumor spheroid viability; assay: Anticancer human tumor 435261-313-R-J1-PDC patient-derived colon adenocarcinoma cell line growth inhibition [PI3K]; settings: second compound 0.316 µM; first compound 3.16 µM; stronger effect = lower value; spheroids with HUVEC and MSC
Numbers only here, please. The scale is %.

Answered cases to consult:
C[C@@H](NC(=O)c1ncnc(N)c1Cl)c1ncc(C(=O)Nc2cc(C(F)(F)F)c(Cl)cn2)s1 + CC(Nc1ncnc2nc[nH]c12)c1cc2cccc(Cl)c2c(=O)n1-c1ccccc1; 150
CNC(=O)c1ccc(N2C(=S)N(c3ccc(C#N)c(C(F)(F)F)c3)C(=O)C2(C)C)cc1F + CC(Nc1ncnc2nc[nH]c12)c1cc2cccc(Cl)c2c(=O)n1-c1ccccc1; 102
C=CC(=O)N1CCN(c2nc(=O)n(-c3c(C)ccnc3C(C)C)c3nc(-c4c(O)cccc4F)c(F)cc23)C(C)C1 (stereo unspecified) + COc1c(OCCCN2CCOCC2)ccc2c3n(c(=NC(=O)c4cnc(N)nc4)nc12)CCN3; 6.9

[in] 435261-313-R-J1-PDC tumor spheroid viability / viability, T/C / CNC(=O)c1ccc(N2C(=S)N(c3ccc(C#N)c(C(F)(F)F)c3)C(=O)C2(C)C)cc1F + COc1c(OCCCN2CCOCC2)ccc2c3n(c(=NC(=O)c4cnc(N)nc4)nc12)CCN3 : value?
[out] 7.67

[in] Please do the same for C=CC(=O)N1CCN(c2nc(=O)n(-c3c(C)ccnc3C(C)C)c3nc(-c4c(O)cccc4F)c(F)cc23)C(C)C1 (stereo unspecified) + CC(Nc1ccc2c(c1)OCCn1cc(N3C(=O)OCC3C(F)F)nc1-2)C(N)=O as well.
[out] 25.5

[in] Please do the same for C#Cc1c(F)ccc2cc(O)cc(-c3ncc4c(N5CC6CCC(C5)N6)nc(OCC56CCCN5CC(F)C6)nc4c3F)c12 (stereo unspecified) + Cc1nc(NC(=O)N2CCCC2C(N)=O)sc1-c1ccnc(C(C)(C)C(F)(F)F)c1 as well.
[out] 27.1

###

tested on: 435261-313-R-J1-PDC tumor spheroid viability; assay: Anticancer human tumor 435261-313-R-J1-PDC cell line growth inhibition [PI3K]; settings: second compound 0.0316 µM; first compound 0.01 µM; stronger effect = lower value; spheroids with HUVEC and MSC;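 also: spheroids exposed to compounds for 7 days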
// reported viability, T/C per item
Numbers only here, please. The scale is %.

CC(=O)c1c(C)c2cnc(Nc3ccc(N4CCNCC4)cn3)nc2n(C2CCCC2)c1=O + Cc1nc(NC(=O)N2CCCC2C(N)=O)sc1-c1ccnc(C(C)(C)C(F)(F)F)c1; 66
Cn1ncnc1[C@H]1c2n[nH]c(=O)c3cc(F)cc(c23)N[C@@H]1c1ccc(F)cc1 + CC(Nc1ccc2c(c1)OCCn1cc(N3C(=O)OCC3C(F)F)nc1-2)C(N)=O; 86.1

[in] Reported viability, T/C for CCN1CCN(Cc2ccc(Nc3ncc(F)c(-c4cc(F)c5nc(C)n(C(C)C)c5c4)n3)nc2)CC1 + CC(Nc1ccc2c(c1)OCCn1cc(N3C(=O)OCC3C(F)F)nc1-2)C(N)=O : what is it?
[out] 58.5

[in] Please do the same for CC(=O)c1c(C)c2cnc(Nc3ccc(N4CCNCC4)cn3)nc2n(C2CCCC2)c1=O + CC(Nc1ncnc2nc[nH]c12)c1cc2cccc(Cl)c2c(=O)n1-c1ccccc1 as well.
[out] 94

[in] Please do the same for CC(C)n1nc(-c2ccc3oc(N)nc3c2)c2c(N)ncnc21 + Cc1nc(NC(=O)N2CCCC2C(N)=O)sc1-c1ccnc(C(C)(C)C(F)(F)F)c1 as well.
[out] 47.9

[in] Please do the same for CC(=O)c1c(C)c2cnc(Nc3ccc(N4CCNCC4)cn3)nc2n(C2CCCC2)c1=O + CC(Nc1ccc2c(c1)OCCn1cc(N3C(=O)OCC3C(F)F)nc1-2)C(N)=O as well.
[out] 86.2

[in] Please do the same for CC(C)n1nc(-c2ccc3oc(N)nc3c2)c2c(N)ncnc21 + COc1c(OCCCN2CCOCC2)ccc2c3n(c(=NC(=O)c4cnc(N)nc4)nc12)CCN3 as well.
[out] 19.4

###

system: 435261-313-R-J1-PDC tumor spheroid viability; experiment: Anticancer human tumor 435261-313-R-J1-PDC cell line growth inhibition [PI3K]; settings: second compound 3.16 µM; first compound 0.01 µM; stronger effect = lower value; spheroids with HUVEC and MSC;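 also: spheroids exposed to compounds for 7 days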
// reported viability, T/C per item

Answered cases to consult:
CC(C)n1nc(-c2ccc3oc(N)nc3c2)c2c(N)ncnc21 + Cc1nc(NC(=O)N2CCCC2C(N)=O)sc1-c1ccnc(C(C)(C)C(F)(F)F)c1; 19.1%
CCN1CCN(Cc2ccc(Nc3ncc(F)c(-c4cc(F)c5nc(C)n(C(C)C)c5c4)n3)nc2)CC1 + CC(Nc1ncnc2nc[nH]c12)c1cc2cccc(Cl)c2c(=O)n1-c1ccccc1; 62%
CC(=O)c1c(C)c2cnc(Nc3ccc(N4CCNCC4)cn3)nc2n(C2CCCC2)c1=O + Cc1nc(NC(=O)N2CCCC2C(N)=O)sc1-c1ccnc(C(C)(C)C(F)(F)F)c1; 16.8%
Cn1ncnc1[C@H]1c2n[nH]c(=O)c3cc(F)cc(c23)N[C@@H]1c1ccc(F)cc1 + CC(Nc1ncnc2nc[nH]c12)c1cc2cccc(Cl)c2c(=O)n1-c1ccccc1; 49.5%
Cn1ncnc1[C@H]1c2n[nH]c(=O)c3cc(F)cc(c23)N[C@@H]1c1ccc(F)cc1 + Cc1nc(NC(=O)N2CCCC2C(N)=O)sc1-c1ccnc(C(C)(C)C(F)(F)F)c1; 18.5%

Next, consider the following compound.
[in] Reported viability, T/C for CC(=O)c1c(C)c2cnc(Nc3ccc(N4CCNCC4)cn3)nc2n(C2CCCC2)c1=O + CC(Nc1ncnc2nc[nH]c12)c1cc2cccc(Cl)c2c(=O)n1-c1ccccc1 : what is it?
[out] 63.1%

###

test system: 435261-313-R-J1-PDC tumor spheroid viability; assay: Anticancer human tumor 435261-313-R-J1-PDC cell line growth inhibition [PI3K]; conditions: second compound 0.1 µM; first compound 0.1 µM; stronger effect = lower value; spheroids with HUVEC and MSC;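 also: spheroids exposed to compounds for 7 days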
Labels assigned by viability, T/C range: low interval (below 50%), middle interval (50% to below 70%), high interval (70% or more)

Answered cases to consult:
CC(Cn1ccc(-c2ccc(C#N)c(Cl)c2)n1)NC(=O)c1cc(C(C)O)[nH]n1 (stereo unspecified) + CC(Nc1ncnc2nc[nH]c12)c1cc2cccc(Cl)c2c(=O)n1-c1ccccc1; high interval
C[C@@H](NC(=O)c1ncnc(N)c1Cl)c1ncc(C(=O)Nc2cc(C(F)(F)F)c(Cl)cn2)s1 + CC(Nc1ncnc2nc[nH]c12)c1cc2cccc(Cl)c2c(=O)n1-c1ccccc1; high interval
CC(C)NCC(C(=O)N1CCN(c2ncnc3c2C(C)CC3O)CC1)c1ccc(Cl)cc1 (stereo unspecified) + COc1c(OCCCN2CCOCC2)ccc2c3n(c(=NC(=O)c4cnc(N)nc4)nc12)CCN3; low interval
CCCS(=O)(=O)Nc1ccc(F)c(C(=O)c2c[nH]c3ncc(-c4ccc(Cl)cc4)cc23)c1F + Cc1nc(NC(=O)N2CCCC2C(N)=O)sc1-c1ccnc(C(C)(C)C(F)(F)F)c1; high interval
CC(=O)c1c(C)c2cnc(Nc3ccc(N4CCNCC4)cn3)nc2n(C2CCCC2)c1=O + CC(Nc1ncnc2nc[nH]c12)c1cc2cccc(Cl)c2c(=O)n1-c1ccccc1; middle interval

[in] Which bin, given its viability, T/C, does Cn1ncc(Cl)c1-c1cc(C(=O)NC(CN)Cc2cccc(F)c2)sc1Cl (stereo unspecified) + CC(Nc1ccc2c(c1)OCCn1cc(N3C(=O)OCC3C(F)F)nc1-2)C(N)=O occupy?
[out] low interval

[in] Please do the same for CC(=O)c1c(C)c2cnc(Nc3ccc(N4CCNCC4)cn3)nc2n(C2CCCC2)c1=O + Cc1nc(NC(=O)N2CCCC2C(N)=O)sc1-c1ccnc(C(C)(C)C(F)(F)F)c1 as well.
[out] middle interval

[in] Please do the same for CC1(C)CCC(CN2CCN(c3ccc(C(=O)NS(=O)(=O)c4ccc(NCC5CCOCC5)c([N+](=O)[O-])c4)c(Oc4cnc5[nH]ccc5c4)c3)CC2)=C(c2ccc(Cl)cc2)C1 + Cc1nc(NC(=O)N2CCCC2C(N)=O)sc1-c1ccnc(C(C)(C)C(F)(F)F)c1 as well.
[out] high interval

[in] Please do the same for C#Cc1c(F)ccc2cc(O)cc(-c3ncc4c(N5CC6CCC(C5)N6)nc(OCC56CCCN5CC(F)C6)nc4c3F)c12 (stereo unspecified) + CC(Nc1ccc2c(c1)OCCn1cc(N3C(=O)OCC3C(F)F)nc1-2)C(N)=O as well.
[out] middle interval

[in] Please do the same for Cn1ncnc1[C@H]1c2n[nH]c(=O)c3cc(F)cc(c23)N[C@@H]1c1ccc(F)cc1 + COc1c(OCCCN2CCOCC2)ccc2c3n(c(=NC(=O)c4cnc(N)nc4)nc12)CCN3 as well.
[out] low interval

[in] Please do the same for Cn1nccc1Nc1nccc(-c2ccn(C(CO)c3ccc(Cl)c(F)c3)c(=O)c2)n1 (stereo unspecified) + Cc1nc(NC(=O)N2CCCC2C(N)=O)sc1-c1ccnc(C(C)(C)C(F)(F)F)c1 as well.
[out] middle interval
